# Study system: rAaeUPO-PaDa-I-H (unspecific peroxygenase) (Cyclocybe aegerita, UniProt B9W4V6, F354L/I291V/L110F/V100A/V118I)
# Construct: gene APO1; recombinant, expressed in Pichia pastoris, C-terminal histidine tag
# Sequence (B9W4V6 44-371 V100A/L110F/V118I/I291V/F354L): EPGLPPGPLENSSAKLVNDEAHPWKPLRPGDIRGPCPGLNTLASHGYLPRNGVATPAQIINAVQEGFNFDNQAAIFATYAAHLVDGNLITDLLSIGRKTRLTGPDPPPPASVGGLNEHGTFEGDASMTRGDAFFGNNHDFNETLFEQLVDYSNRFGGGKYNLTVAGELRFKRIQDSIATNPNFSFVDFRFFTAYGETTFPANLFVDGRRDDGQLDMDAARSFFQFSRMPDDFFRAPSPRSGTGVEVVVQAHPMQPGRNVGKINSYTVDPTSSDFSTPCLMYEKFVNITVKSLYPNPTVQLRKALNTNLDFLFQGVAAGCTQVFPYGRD
# Assay comment: competition-based 5-nitro-1,3-benzodioxole peroxygenase assay; also converted to (R)-alcohol […]
# Format: biochemical
Endpoint name: pIC50
Scale for pIC50: -log10 of concentration given in mol/L; no unit attached.

Name the recorded pIC50 for CCc1cccnc1 [compound 10, 3-ethylpyridine] .
3.15

----------
# Study system: rAaeUPO-PaDa-I-H (unspecific peroxygenase) (Cyclocybe aegerita, UniProt B9W4V6, F354L/I291V/L110F/V100A/V118I)
# Construct: gene APO1; recombinant, expressed in Pichia pastoris, C-terminal histidine tag
# Assay comment: competition-based 5-nitro-1,3-benzodioxole peroxygenase assay; also converted to (R)-alcohol […]
# Type: biochemical
Endpoint name: IC50 (mM)
Answer in mM, number only, no unit symbol.

Name the recorded IC50 for `CCc1ccccn1` .
29.5
